- Tested on: SDH-KO-HRAS cells (SDHB-deficient)
- ASSAY_TEXT: Cellular / differential toxicity assay (CellTiter-Glo, 3 days)
- Type: cell-based, murine
- TEST_CONTEXT: Mus musculus, 72 h, toxicity, SDH-KO cells, 3 days, CellTiter-Glo; read-out: EC50 (uM) SDH-KO-HTAS-C17
MEASURED_QUANTITY: EC50

CCCCCNc1ncnc2c1sc1nc3c(cc12)COC(C)(C)C3 = 3 to 10 µM
Cc1nc(NCC(C)C)c2sc3nc4c(cc3c2n1)COC(C)(C)C4 = > 10 µM
CN(C)CCNc1ncnc2c1sc1nc3c(cc12)COC(C)(C)C3 = > 10 µM

Next:
Provide only the value of recorded EC50 for COc1ccc(CCNc2ncnc3c2sc2nc4c(cc23)COCC4)cc1F
< 1 µM
